System: CYP1A2 mRNA
Assay: in vitro
Settings: female, human, culture Hep220770, TCDD 5 nM, 24 h
Recorded metric: fold induction
Would you mind answering with just the numeric figure?

Asked: Lab request: please report fold induction under test system CYP1A2 mRNA for Clc1cc2c(cc1Cl)Oc1cc(Cl)c(Cl)cc1O2
Given back: 219

###

Target: aryl hydrocarbon receptor AhR (Homo sapiens, UniProt P35869)
Construct: endogenous in cells; host or cells: AZ-AHR (stably transfected reporter line derived from HepG2)
Sequence (P35869 11-848): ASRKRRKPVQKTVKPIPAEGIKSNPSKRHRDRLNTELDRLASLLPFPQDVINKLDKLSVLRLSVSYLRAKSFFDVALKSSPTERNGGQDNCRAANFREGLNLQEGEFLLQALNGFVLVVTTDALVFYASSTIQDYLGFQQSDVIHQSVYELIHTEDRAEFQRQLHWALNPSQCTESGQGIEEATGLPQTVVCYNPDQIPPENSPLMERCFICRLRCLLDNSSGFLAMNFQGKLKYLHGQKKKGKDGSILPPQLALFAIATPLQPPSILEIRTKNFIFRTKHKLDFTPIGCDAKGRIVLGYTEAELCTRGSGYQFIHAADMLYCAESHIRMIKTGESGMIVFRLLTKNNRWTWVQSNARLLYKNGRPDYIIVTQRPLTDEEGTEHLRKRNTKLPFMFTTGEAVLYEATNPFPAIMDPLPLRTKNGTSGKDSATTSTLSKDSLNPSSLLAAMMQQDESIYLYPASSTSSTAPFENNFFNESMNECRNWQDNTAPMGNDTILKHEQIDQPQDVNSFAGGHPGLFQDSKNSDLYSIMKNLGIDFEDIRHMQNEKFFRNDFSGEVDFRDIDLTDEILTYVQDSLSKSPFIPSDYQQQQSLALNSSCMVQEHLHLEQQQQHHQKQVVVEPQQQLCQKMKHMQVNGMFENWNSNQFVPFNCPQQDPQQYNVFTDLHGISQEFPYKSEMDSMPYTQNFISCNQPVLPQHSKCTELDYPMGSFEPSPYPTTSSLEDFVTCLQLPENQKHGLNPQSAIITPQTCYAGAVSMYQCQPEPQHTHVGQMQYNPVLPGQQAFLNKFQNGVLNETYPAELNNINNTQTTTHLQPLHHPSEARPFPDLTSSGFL
Assay: AhR gene reporter assay in AZ-AHR cells, antagonist mode (TCDD 5 nM)
Assay type: cell-based
Details: 24 h, in the presence of TCDD 5 nM
Recorded metric: pIC50
The value called pIC50 is obtained by taking minus log10 of the concentration in mol/L.

Sample answers from the record:
INSERT INTO measurements (molecule, assay_result) VALUES
  ('CC(=O)N1CCN(c2ccc(OC[C@H]3CO[C@](Cn4ccnc4)(c4ccc(Cl)cc4Cl)O3)cc2)CC1 [(+)-KET, (2R,4S)-(+)-KET]', 4.65),
  ('CC(=O)N1CCN(c2ccc(OC[C@@H]3CO[C@@](Cn4ccnc4)(c4ccc(Cl)cc4Cl)O3)cc2)CC1 [(−)-KET, (2S,4R)-(−)-KET]', 4.76);

Now consider a different molecule.
Asked: Please look up its pIC50: CC(=O)N1CCN(c2ccc(OCC3COC(Cn4ccnc4)(c4ccc(Cl)cc4Cl)O3)cc2)CC1 (racemic)
Given back: 4.51

Values compiled from paper PMC4084896.
